Provenance of the data: patent US20110118131A1

Target: T1, Ep-CAM (UniProt P16422 24-265, limits assumed)
T1 construct: Antigen of the Biacore analysis of ING-1 variants
T1 sequence (looked up): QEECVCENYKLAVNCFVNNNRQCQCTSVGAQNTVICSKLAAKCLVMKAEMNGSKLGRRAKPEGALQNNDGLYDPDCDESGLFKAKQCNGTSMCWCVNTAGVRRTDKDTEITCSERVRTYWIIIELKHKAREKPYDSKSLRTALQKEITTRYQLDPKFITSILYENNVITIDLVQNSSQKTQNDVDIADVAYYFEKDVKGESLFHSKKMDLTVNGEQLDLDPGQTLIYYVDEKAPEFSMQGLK
Assay: Biacore, Fab periplasmic extract
Measured attribute: binding result

ING-1 heavy chain G100D (Fab, V domains shown) VH: QIQLVQSGPELKKPGETVKISCKASGYTFTKYGMNWVKQAPGKGLKWMGWINTYTEEPTYGDDFKGRFAFSLETSASTANLQINNLKSEDTATYFCARFDSAVDYWGQGTSVTVSS VL: DIVMTQAAFSNPVTLGTSGSISCRSSKSLLHSNGITYLYWYLQKPGQSPQLLIYQMSNLASGVPDRFSSSGSGTDFTLRISRVEAEDVGVYYCAQNLELPRTFGGGTKLEMKR: no binding
ING-1 heavy chain T53Q (Fab, V domains shown) VH: QIQLVQSGPELKKPGETVKISCKASGYTFTKYGMNWVKQAPGKGLKWMGWINQYTEEPTYGDDFKGRFAFSLETSASTANLQINNLKSEDTATYFCARFGSAVDYWGQGTSVTVSS VL: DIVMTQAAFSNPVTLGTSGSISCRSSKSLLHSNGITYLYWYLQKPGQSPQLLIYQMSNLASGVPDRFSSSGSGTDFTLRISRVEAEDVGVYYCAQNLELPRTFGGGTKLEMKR: no binding
ING-1 heavy chain T53F (Fab, V domains shown) VH: QIQLVQSGPELKKPGETVKISCKASGYTFTKYGMNWVKQAPGKGLKWMGWINFYTEEPTYGDDFKGRFAFSLETSASTANLQINNLKSEDTATYFCARFGSAVDYWGQGTSVTVSS VL: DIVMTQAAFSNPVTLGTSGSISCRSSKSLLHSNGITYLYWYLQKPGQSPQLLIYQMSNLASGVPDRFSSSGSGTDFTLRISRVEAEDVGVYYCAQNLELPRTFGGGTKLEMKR: no binding
